biological target: Prostaglandin G/H synthase 1 (Homo sapiens, UniProt P23219); assay: biochemical; type: tissue-based, Platelet; conditions: platelet; also: in other assays of this panel Not Active means under 50% inhibition at 10 µM;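 also: inhibition of COX-1 enzyme activity, with arachidonic acid supplied as substrate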
Sequence (P23219 whole entry): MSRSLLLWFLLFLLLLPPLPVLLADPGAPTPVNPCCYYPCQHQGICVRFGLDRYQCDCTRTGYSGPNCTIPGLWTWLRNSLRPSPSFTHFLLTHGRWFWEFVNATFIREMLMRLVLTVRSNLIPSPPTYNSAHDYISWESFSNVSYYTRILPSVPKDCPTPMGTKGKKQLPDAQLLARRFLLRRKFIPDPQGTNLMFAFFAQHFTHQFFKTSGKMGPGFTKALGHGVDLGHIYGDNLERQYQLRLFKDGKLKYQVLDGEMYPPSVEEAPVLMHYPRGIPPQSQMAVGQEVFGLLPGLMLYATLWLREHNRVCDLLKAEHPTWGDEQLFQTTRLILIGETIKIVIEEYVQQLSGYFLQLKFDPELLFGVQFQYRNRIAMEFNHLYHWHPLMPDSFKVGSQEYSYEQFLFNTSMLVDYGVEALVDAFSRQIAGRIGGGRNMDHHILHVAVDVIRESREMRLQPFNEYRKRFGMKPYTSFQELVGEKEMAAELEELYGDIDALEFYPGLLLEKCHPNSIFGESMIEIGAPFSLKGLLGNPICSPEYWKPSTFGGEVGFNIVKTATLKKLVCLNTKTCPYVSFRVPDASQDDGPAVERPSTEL
measure: IC50

molecule: CC(=O)[C@@]1(O)CC[C@H]2[C@@H]3CCC4=CC(=O)CC[C@]4(C)[C@H]3CC[C@@]21C [HYDROXYPROGESTERONE]
measured_result: Not Active
//
molecule: Oc1cccc(O)c1O
measured_result: Not Active
//
molecule: O=C1Nc2ccc(Cl)cc2C(c2ccccc2Cl)=NC1O (stereo not drawn)
measured_result: Not Active

---

target: Muscarinic acetylcholine receptor M4 (Homo sapiens, UniProt P08173); assay type: cell membranes, CHO-K1, Membrane; conditions: cho-k1; also: in other assays of this panel Not Active means under 50% inhibition at 10 µM
Sequence (P08173 whole entry): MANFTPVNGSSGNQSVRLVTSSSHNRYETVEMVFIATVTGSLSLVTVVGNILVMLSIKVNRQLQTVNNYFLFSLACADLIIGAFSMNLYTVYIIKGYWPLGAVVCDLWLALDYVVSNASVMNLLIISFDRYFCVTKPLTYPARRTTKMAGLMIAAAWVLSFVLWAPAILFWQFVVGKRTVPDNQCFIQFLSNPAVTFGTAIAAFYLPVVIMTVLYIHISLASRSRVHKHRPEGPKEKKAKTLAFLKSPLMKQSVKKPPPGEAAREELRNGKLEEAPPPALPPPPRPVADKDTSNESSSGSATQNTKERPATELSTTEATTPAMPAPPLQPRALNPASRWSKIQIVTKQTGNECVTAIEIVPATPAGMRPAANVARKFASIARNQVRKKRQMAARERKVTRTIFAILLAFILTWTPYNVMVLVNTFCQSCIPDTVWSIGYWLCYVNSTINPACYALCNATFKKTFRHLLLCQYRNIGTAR
measure: IC50

Some solved entries appear below for comparison.
compound: CC(=O)[C@H]1[C@H](C#N)C[C@H]2[C@@H]3CC=C4C[C@@H](O)CC[C@]4(C)[C@H]3CC[C@@]21C
IC50: Not Active
//
compound: O=C(Oc1ccccc1C(=O)O)c1ccccc1O [SALSALATE]
IC50: Not Active
//
compound: Cn1c(=O)c2c(ncn2CC(O)CO)n(C)c1=O (centres undefined)
IC50: Not Active
//
compound: CNC1(c2ccccc2Cl)CCCCC1=O (centres undefined)
IC50: Not Active
//
compound: O=C(O)CCNC(=O)c1ccccc1
IC50: Not Active
//
compound: CC(C)c1cccc(C(C)C)c1O
IC50: Not Active

Prompt: What value of IC50 has been reported for the following compound? C[C@H]1O[C@@H](n2cc(F)c(=O)[nH]c2=O)[C@H](O)[C@@H]1O
Completion: Not Active

Prompt: Next up: CO[C@H]1/C=C/O[C@@]2(C)Oc3c(C)c(O)c4c(O)c(c(/C=N/N5CCN(C6CCCC6)CC5)c(O)c4c3C2=O)NC(=O)/C(C)=C\C=C\[C@H](C)[C@H](O)[C@@H](C)[C@@H](O)[C@@H](C)[C@H](OC(C)=O)[C@@H]1C
Completion: Not Active

Prompt: Next up: COc1cc(N)c(Cl)cc1C(=O)NC1CCN(CCCOc2ccc(F)cc2)CC1OC (centres undefined) [CISAPRIDE]
Completion: Not Active

---

molecular target: Cytochrome P450 2D6 (Homo sapiens, UniProt P10635); also: in other assays of this panel Not Active means under 50% inhibition at 10 µM
Sequence (P10635 whole entry): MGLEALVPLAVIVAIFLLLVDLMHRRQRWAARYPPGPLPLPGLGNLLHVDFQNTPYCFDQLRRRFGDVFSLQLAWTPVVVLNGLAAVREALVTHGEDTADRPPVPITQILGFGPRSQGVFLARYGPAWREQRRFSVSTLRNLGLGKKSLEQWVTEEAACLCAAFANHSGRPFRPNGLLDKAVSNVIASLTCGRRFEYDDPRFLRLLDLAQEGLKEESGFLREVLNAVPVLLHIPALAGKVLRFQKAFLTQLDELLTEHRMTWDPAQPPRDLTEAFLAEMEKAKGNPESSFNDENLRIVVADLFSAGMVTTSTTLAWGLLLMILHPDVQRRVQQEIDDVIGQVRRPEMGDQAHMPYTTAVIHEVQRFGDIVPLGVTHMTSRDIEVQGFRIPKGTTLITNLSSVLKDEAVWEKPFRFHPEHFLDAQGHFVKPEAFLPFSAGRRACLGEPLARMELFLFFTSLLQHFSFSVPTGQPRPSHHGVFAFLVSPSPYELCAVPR
Field 'label' (enum: true (1) / false (0)). Set to true (1) when IC50 is strictly under 5 µM; else false (0).

Solved entries (count: 6):
compound: COc1ccc2cc3[n+](cc2c1OC)CCc1cc2c(cc1-3)OCO2.[Cl-] [BERBERINE CHLORIDE]
cat: true (1)
--
compound: Cc1c(OCC(F)(F)F)ccnc1C[S+]([O-])c1nc2ccccc2[nH]1 (centres undefined)
cat: false (0)
--
compound: Cc1cc2c(OCC(CNC(C)(C)C)OC(=O)c3ccccc3)cccc2[nH]1 (centres undefined)
cat: false (0)
--
compound: Clc1ccc(COC(Cn2ccnc2)c2ccc(Cl)cc2Cl)cc1 (centres undefined)
cat: true (1)
--
compound: OC(CCCN1CCCCC1)(c1ccccc1)c1ccccc1
cat: true (1)
--
compound: CCN(CC)CCOc1ccc(/C(=C(/Cl)c2ccccc2)c2ccccc2)cc1
cat: false (0)

Prompt: Dear reviewer, please state whether CN(C/C=C/C#CC(C)(C)C)Cc1cccc2ccccc12 has IC50 strictly beneath 5 µM.
Completion: true (1)

Prompt: Next up: CO[C@@H]1[C@@H](OC)[C@H](C)[C@@](O)(CC(=O)O)O[C@H]1[C@H](C)[C@H]1O[C@@]2(CC[C@@](C)([C@H]3CC[C@@](C)([C@@H]4O[C@@H]([C@H]5O[C@](C)(O)[C@H](C)C[C@@H]5C)C[C@@H]4O[C@@H]4C[C@H](OC)[C@@H](OC)[C@H](C)O4)O3)O2)C[C@H](O)[C@H]1C
Completion: true (1)

Prompt: Next up: COC1=C(OC)C(=O)C(CCCCCCCCCCO)=C(C)C1=O
Completion: true (1)
